# Tested on: PA-1
# testDescription: Primary qHTS to identify gynecologic anti-cancer compounds using libraries of approved drugs and bioactive compounds (AID 1345084); also: % is scaled to controls: 0 for no effect and ±100 for the full control effect; nearly all actives have a fitted effect of over 55% in size
# assaySetup: Gynecologic cancer cell panel viability, ATPlite luminescence, 48 h; series mostly up to 57.5 µM
Inconclusive results are not listed. The source made the active and inactive calls. Calls follow the shape of the dose curve; as a rule, active = well fitted cell-killing curve with a large enough effect; inconclusive = small, poorly fitted or top-dose-only effect, or effect the other way; inactive = flat fitted curve, though single readings scatter.

- compound: "COC1CC(OC2CCC3(C)C(=CCC4C3C(OC(C)=O)C(OC(=O)/C=C/c3ccccc3)C3(C)C(C(C)O)CCC43O)C2)OC(C)C1OC1CC(OC)C(OC2OC(C)C(OC3OC(CO)C(O)C(O)C3O)C(OC)C2O)C(C)O1 (centres undefined)"
  system: "PA-1"
  activity change, negative = cytotoxicity: "-0.704% [at 6.55 µM] (inactive)"
- compound: "CC(C)=CCC[C@](C)(O[C@@H]1O[C@H](CO)[C@@H](O)[C@H](O)[C@H]1O)[C@H]1CC[C@]2(C)[C@@H]1[C@H](O)CC1[C@@]3(C)CC[C@H](O)C(C)(C)C3[C@@H](O[C@@H]3O[C@H](CO)[C@@H](O)[C@H](O)[C@H]3O[C@@H]3OC[C@@H](O)[C@H](O)[C@H]3O)C[C@]12C (some centres undefined)"
  system: "PA-1"
  activity change, negative = cytotoxicity: "2.46% [at 11.6 µM] (inactive)"
- compound: "O=S(=O)(Nc1ccccn1)c1ccc(N=Cc2c(O)[nH]c3ccc4ncsc4c23)cc1"
  system: "PA-1"
  activity change, negative = cytotoxicity: "-2.66% [at 11.6 µM] (inactive)"
- compound: "C/C=C(\\C)C(=O)O[C@@H]1CC2[C@@H](CC=C3C[C@@H](O[C@H]4C[C@H](OC)[C@H](O[C@H]5C[C@H](OC)[C@H](O[C@@H]6O[C@H](C)[C@@H](O[C@H]7C[C@H](OC)[C@H](O[C@@H]8O[C@H](CO)[C@@H](O)[C@H](O)[C@H]8O)[C@@H](C)O7)[C@H](OC)[C@H]6O)[C@@H](C)O5)[C@@H](C)O4)CC[C@@]32C)[C@@]2(O)CC[C@H](C(C)=O)[C@@]12C (some centres undefined)"
  system: "PA-1"
  activity change, negative = cytotoxicity: "-4.92% [at 6.55 µM] (inactive)"

====

# system: Phospholipid hydroperoxide glutathione peroxidase GPX4 (Homo sapiens)
# testDescription: Primary qHTS Assay for Inhibitors of Recombinant Selenoprotein Glutathione Peroxidase 4 (GPX4) (AID 1845192); also: nearly all actives have a fitted effect of over 65% in size
# assaySetup: recombinant GPX4, GR-coupled NADPH fluorescence, 15 min; series mostly up to 50 µM
Results filed as inconclusive are left out. Activity calls are given as the source filed them. Calls come from the whole dose curve; as a rule, active = well fitted inhibition curve with a large enough effect; inconclusive = small, poorly fitted or top-dose-only effect; inactive = flat fitted curve, though single readings scatter.

- compound: "C[C@@H]1O[C@@H](O[C@H]2[C@H](OC(=O)[C@]34CCC(C)(C)C[C@H]3C3=CCC5[C@@]6(C)CC[C@H](O[C@@H]7O[C@H](C(=O)O)[C@@H](O)[C@H](O)[C@H]7O[C@@H]7O[C@H](CO)[C@H](O)[C@H](O)[C@H]7O)[C@@](C)(C=O)C6CC[C@@]5(C)[C@]3(C)C[C@H]4O)O[C@H](C)[C@H](O[C@@H]3O[C@H](C)[C@H](O)[C@H](O)[C@H]3O)[C@@H]2O)[C@H](O)[C@H](O)[C@H]1O[C@@H]1OC[C@@H](O)[C@H](O[C@@H]2O[C@H](CO)[C@@H](O)[C@H](O)[C@H]2O)[C@H]1O (stereo partly drawn)"
  outcome: "inactive [at 9.73 µM]"
- compound: "C[C@@H]1O[C@@H](O[C@H]2[C@H](O)[C@@H](O[C@@H]3O[C@H](CO)[C@@H](O)[C@H](O[C@@H]4O[C@H](CO)[C@@H](O)[C@H](O)[C@H]4O)[C@H]3O)[C@H](O[C@H]3CC[C@@]4(C)C(=CC[C@@H]5C4CC[C@@]4(C)C5C[C@@H]5OC6(CC[C@@](C)(CO[C@@H]7O[C@H](CO)[C@@H](O)[C@H](O)[C@H]7O)O6)[C@@H](C)[C@@H]54)C3)O[C@@H]2CO)[C@H](O)[C@H](O)[C@H]1OC1OC(CO)C(O)C(O)C1O (stereo partly drawn)"
  outcome: "inactive [at 9.73 µM]"
- compound: "C[C@@H]1O[C@@H](O[C@H]2[C@H](O[C@H]3[C@H](O)[C@@H](C(=O)O)O[C@@H](O[C@H]4CC[C@@]5(C)C(CC[C@]6(C)C5CC[C@]57OC[C@@]8(CCC(C)(C)CC85)[C@H](O)C[C@]76C)C4(C)C)[C@@H]3O[C@@H]3O[C@H](CO)[C@@H](O[C@@H]4OC[C@@H](O)[C@H](O)[C@H]4O)[C@H](O)[C@H]3O)O[C@H](CO)[C@H](O)[C@@H]2O)[C@H](O)[C@H](O)[C@H]1O (stereo partly drawn)"
  outcome: "inactive [at 9.73 µM]"

====

# Tested on: Zika virus NS2B-NS3 protease (linked construct)
# testDescription: Primary screen NINDS Rhodamine qHTS for Zika virus inhibitors (AID 1347160); also: nearly all actives have a fitted effect of over 55% in size
# assaySetup: purified NS2B-NS3 protease, Rhodamine110 substrate fluorescence; series mostly up to 57.1 µM
Records with an inconclusive call do not appear. Activity calls are given as the source filed them. Calls come from the whole dose curve; as a rule, active = well fitted inhibition curve with a large enough effect; inconclusive = small, poorly fitted or top-dose-only effect; inactive = no such curve, though single readings can be large or run the other way. Where a SMILES comes first, the peptide text is derived from it. [ ]: non-standard residue; d: D form. dPhe(4-Cl) = N[C@H](Cc1ccc(Cl)cc1)C(=O)O; d2Nal = N[C@H](Cc1ccc2ccccc2c1)C(=O)O; dCit = NC(=O)NCCC[C@@H](N)C(=O)O; d3Pal = N[C@H](Cc1cccnc1)C(=O)O
Classes used: 1.0 (active), 0.0 (inactive)

- compound: "O=C(OC1C=C(CO)C2C(OC3OC(CO)C(O)C(O)C3O)OC=CC12)c1ccc(O)cc1 (stereo not drawn)"
  discreteLabel: 0.0
- compound: "Cc1cc(Cl)ccc1COc1ccnn1-c1cc(C(=O)O)ccn1"
  discreteLabel: 0.0
- compound: "CC(=O)CCC1=C(C)C(O[C@@H]2O[C@H](CO)[C@@H](O)[C@H](O)[C@H]2O)C(O)CC1(C)C (stereo partly drawn)"
  discreteLabel: 0.0
- compound: "CNC(=S)NS(=O)(=O)c1cc(CCNC(=O)c2cc(Cl)ccc2OC)ccc1OC"
  discreteLabel: 0.0
- compound: "CO[C@H]1O[C@@H]2O[C@]3(C)CC[C@H]4[C@H](C)CC[C@@H]([C@H]1C)[C@@]24OO3"
  discreteLabel: 0.0
- compound: "CSc1ccc(C(=O)N[C@@H]2CCCC[C@@H]2NC(=O)CNC(=O)c2cc(C(F)(F)F)ccc2NC(=O)NC(C)C)cc1"
  discreteLabel: 0.0
- compound: "C[C@@H]1C(=O)O[C@H]2[C@@H](O)C34[C@H]5C[C@@H](C(C)(C)C)C36[C@@H](OC(=O)[C@@H]6O)O[C@@]4(C(=O)O5)[C@@]12O (stereo partly drawn)"
  discreteLabel: 0.0
- compound: "CC1CCCCN1S(=O)(=O)c1ccc(N2CCCC2=O)cc1 (stereo not drawn)"
  discreteLabel: 0.0
- compound: "C[C@@H]1O[C@@H](O[C@@H]2[C@@H](O)[C@H](O[C@H]3CC[C@@]4(C)C(CC[C@]5(C)C4CC=C4[C@@H]6CC(C)(C)CC[C@]6(C(=O)O[C@@H]6O[C@H](CO)[C@@H](O)[C@H](O)[C@H]6O)CC[C@]45C)C3(C)C)O[C@H](C(=O)O)[C@H]2O)[C@H](O)[C@H](O)[C@H]1O (stereo partly drawn)"
  discreteLabel: 0.0
- compound: "CC(C)CC(=O)O[C@@H]1OC=C(CO[C@@H]2O[C@H](CO)[C@@H](O)[C@H](O)[C@H]2O)[C@H]2[C@@H]3O[C@H]3[C@@](O)(CO)[C@@H]12"
  discreteLabel: 0.0
- compound: "C=C1C(O)CC2C(C(=O)O)=COC(O[C@@H]3O[C@H](COC(=O)/C=C/c4ccc(O)cc4)[C@@H](O)[C@H](O)[C@H]3O)C12 (stereo partly drawn)"
  discreteLabel: 0.0
- compound: "Cc1noc(=O)c2ccc(NC(=O)C(O)(CC(C)(C)c3cccc4c3OCC4)C(F)(F)F)cc12 (stereo not drawn)"
  discreteLabel: 0.0
- compound: "COC(=O)C1=CO[C@@H](O[C@@H]2O[C@H](CO)[C@@H](O)[C@H](O)[C@H]2O)C2C1C(=O)C[C@H]2C (stereo partly drawn)"
  discreteLabel: 0.0
- compound: "CN1CCc2nc(C(=O)N[C@@H]3C[C@@H](C(=O)N(C)C)CC[C@@H]3NC(=O)C(=O)Nc3ccc(Cl)cn3)sc2C1"
  discreteLabel: 0.0
- compound: "[N-]=[N+]=N[C@]1(CO)O[C@@H](n2ccc(=O)[nH]c2=O)[C@@H](O)[C@@H]1O"
  discreteLabel: 0.0
- compound: "CC(O)(CC(=O)O)CC(=O)OCc1ccc(O[C@@H]2O[C@H](CO)[C@@H](O)[C@H](O)[C@H]2O)cc1 (stereo partly drawn)"
  discreteLabel: 0.0
- compound: "CC(=O)N[C@H](Cc1ccc2ccccc2c1)C(=O)N[C@H](Cc1ccc(Cl)cc1)C(=O)N[C@H](Cc1cccnc1)C(=O)N[C@@H](CO)C(=O)N[C@@H](Cc1ccc(O)cc1)C(=O)N[C@H](CCCNC(N)=O)C(=O)N[C@@H](CC(C)C)C(=O)N[C@@H](CCCN=C(N)N)C(=O)N1CCC[C@H]1C(=O)N[C@H](C)C(N)=O (Ac-[d2Nal][dPhe(4-Cl)][d3Pal]SY[dCit]LRP[dA]-NH2)"
  discreteLabel: 0.0
- compound: "CC1OC(OC2C(OC3C(O[C@H]4CC[C@@]5(C)C(CC[C@]6(C)C5C(=O)C=C5C7CC(C)(C)CC(O)[C@]7(C)CC[C@]56C)C4(C)C)OC(C(=O)O)C(O)C3O)OCC(O)C2O)C(O)C(O)C1O (stereo partly drawn)"
  discreteLabel: 0.0
- compound: "Cc1nc(Nc2n[nH]c3c2CN(C(=O)NC(CN(C)C)c2ccccc2)C3(C)C)c2sccc2n1 (stereo not drawn)"
  discreteLabel: 0.0
- compound: "C=CC/C=C\\C/C=C\\CCCCCCCc1cccc(O)c1C(=O)O"
  discreteLabel: 1.0
- compound: "CC(Oc1ccc2[nH]nc(/C=C/c3cnn(CCO)c3)c2c1)c1c(Cl)cncc1Cl (stereo not drawn)"
  discreteLabel: 0.0
- compound: "Cc1cc(O)c(-c2ccc([C@@H](C)CN(C)C)cc2)c2c1[nH]c(=O)c1sccc12"
  discreteLabel: 0.0
- compound: "CC(C)CN(C[C@@H](O)[C@H](Cc1ccccc1)NC(=O)O[C@@H]1CO[C@H]2OCC[C@H]21)S(=O)(=O)c1ccc(N)cc1"
  discreteLabel: 0.0
- compound: "CC(C)c1ccc2c(c1)C(=O)CC1[C@@](C)(C(=O)O)CCC[C@]21C (stereo partly drawn)"
  discreteLabel: 0.0
- compound: "COC(=O)[C@@]1(c2ccc(C)cc2)C[C@H]1CN1CCC(O)(c2ccccc2)CC1"
  discreteLabel: 0.0
- compound: "C=C1C(O)C(O)C2(CC3C(C)=CCC4C(C)(CO)CCCC34C)OC2C1O (stereo not drawn)"
  discreteLabel: 0.0
- compound: "Cc1cc(NC(=O)Nc2ccc(F)c(F)c2)n(-c2ccccc2)n1"
  discreteLabel: 0.0
- compound: "CC(=O)OC[C@@]12C(=O)C[C@@H](C)[C@]3(C[C@@H](c4ccoc4)O[C@H]3OC(C)=O)[C@H]1CCC[C@]21CO1"
  discreteLabel: 0.0
